Where these numbers come from: paper PMC8453865

assay_conditions: human, plasma
quantity_name: Tmax
Report field: quantity (unit follows the number).

// lookup Tmax for Cc1ncc2n1-c1ccc(Cl)cc1C(c1ccccc1F)=NC2 15 min
